system: 817829-284-R-J1-PDC complex spheroid viability; assay: Anticancer human tumor 817829-284-R-J1-PDC patient-derived colon adenocarcinoma cell line growth inhibition [POLQ]; conditions: curve of first compound; second compound 0.1 µM
pIC50: −log10 of the molar value.
pIC50: recorded values

{"columns": ["compound", "censor symbol", "pIC50"],
 "data": [
  ["CC(C)n1c(=O)n(C)c2cnc3cc(F)c(-c4ccc(OCCCN5CCCCC5)nc4)cc3c21 + Cc1cccc(N(C)C(=O)C2C(O)CCN2c2nc(C)cc(C(F)(F)F)c2C#N)c1", "=", 5.12],
  ["CCCS(=O)(=O)Nc1ccc(F)c(C(=O)c2c[nH]c3ncc(-c4ccc(Cl)cc4)cc23)c1F + Nc1ccc(C#CCN(C(=O)Cc2ncc(C(F)(F)F)cc2C(F)(F)F)c2ccc(F)cc2)nn1", "=", 5.34],
  ["O=c1[nH]cc(F)c(=O)[nH]1 + Cc1cccc(N(C)C(=O)C2C(O)CCN2c2nc(C)cc(C(F)(F)F)c2C#N)c1", "=", 5.51],
  ["COc1cc2cc(C(=O)CCC(=O)O)sc2cc1OC + Cc1cccc(N(C)C(=O)C2C(O)CCN2c2nc(C)cc(C(F)(F)F)c2C#N)c1", "<", 5.00],
  ["CNCc1ccc(-c2[nH]c3cc(F)cc4c3c2CCNC4=O)cc1 + Cc1cccc(N(C)C(=O)C2C(O)CCN2c2nc(C)cc(C(F)(F)F)c2C#N)c1", "=", 5.12],
  ["C=CC(=O)N1CCN(c2nc(=O)n(-c3c(C)ccnc3C(C)C)c3nc(-c4c(O)cccc4F)c(F)cc23)C(C)C1 (stereo not drawn) + COC1C(OC(N)=O)C(O)C(Oc2ccc3c(O)c(NC(=O)c4ccc(O)c(CC=C(C)C)c4)c(=O)oc3c2C)OC1(C)C", "<", 5.00],
  ["Cn1ncnc1[C@H]1c2n[nH]c(=O)c3cc(F)cc(c23)N[C@@H]1c1ccc(F)cc1 + COC1C(OC(N)=O)C(O)C(Oc2ccc3c(O)c(NC(=O)c4ccc(O)c(CC=C(C)C)c4)c(=O)oc3c2C)OC1(C)C", "=", 8.31],
  ["CCc1c2c(nc3ccc(O)cc13)-c1cc3c(c(=O)n1C2)COC(=O)[C@]3(O)CC + Nc1ccc(C#CCN(C(=O)Cc2ncc(C(F)(F)F)cc2C(F)(F)F)c2ccc(F)cc2)nn1", ">", 8.50]
]}

---

IC50: recorded values
tested on: 817829-284-R-J1-PDC complex spheroid viability; assay: Anticancer human tumor 817829-284-R-J1-PDC cell line growth inhibition [POLQ]; settings: curve of first compound; second compound 1 µM;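 further: spheroids exposed to compounds for 7 days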
recorded metric: IC50

{"columns": ["compound", "recorded metric", "observed measurement"],
 "data": [
  ["CCc1c2c(nc3ccc(O)cc13)-c1cc3c(c(=O)n1C2)COC(=O)[C@]3(O)CC + Nc1ccc(C#CCN(C(=O)Cc2ncc(C(F)(F)F)cc2C(F)(F)F)c2ccc(F)cc2)nn1", "IC50", "< 3.16 nM"],
  ["CC(=O)O[C@H]1C(=O)[C@@]2(C)[C@H]([C@H](OC(=O)c3ccccc3)[C@]3(O)C[C@H](OC(=O)[C@H](O)[C@@H](NC(=O)c4ccccc4)c4ccccc4)C(C)=C1C3(C)C)[C@]1(OC(C)=O)CO[C@@H]1C[C@@H]2O + Cc1cccc(N(C)C(=O)C2C(O)CCN2c2nc(C)cc(C(F)(F)F)c2C#N)c1", "IC50", "< 9.49 nM"]
]}
